Data origin, for the record: ChEMBL document CHEMBL3822360

system: Rattus norvegicus; assay: Ulcerogenicity in Wistar albino rat assessed as damage in gastric mucosa at 50 mg/kg, po qd for 3 days measured 1 hr post last dose; format: toxicity, organism-based; conditions: in vivo
For each record, write down the corresponding UI.

Noted for COc1ccc([C@@H]2CC(c3sc(-c4ccccc4)nc3C)=NN2c2ccc(S(C)(=O)=O)cc2)cc1 : its UI reads 3.83

Noted for Cc1nc(-c2ccccc2)sc1-c1ccnn1-c1ccc(S(C)(=O)=O)cc1 : its UI reads 4.35

Noted for COc1ccc(/C=C/C(=O)c2sc(-c3ccccc3)nc2C)cc1 : its UI reads 4.08

Noted for Cc1nc(-c2ccccc2)sc1-c1ccnn1-c1ccc(S(N)(=O)=O)cc1 : its UI reads 2.48

Noted for Cc1nc(-c2ccccc2)sc1-c1ccnn1-c1ccc(S(=O)(=O)/N=C/N(C)C)cc1 : its UI reads 2.93

###

For each record, write down the corresponding inhibition in vivo at 50 mg/kg.
system: Rattus norvegicus; assay: Anti-inflammatory activity in Wistar albino rat assessed as inhibition of carrageenan-induced paw edema at 50 mg/kg, po measured after 2 hrs relative to control; type: functional
API: value field is a number in %; no unit string.

Noted for COc1ccc([C@@H]2CC(c3sc(-c4ccccc4)nc3C)=NN2c2ccc(S(N)(=O)=O)cc2)cc1 : its inhibition in vivo at 50 mg/kg reads 37.1

Noted for COc1ccc(/C=C/C(=O)c2sc(-c3ccccc3)nc2C)cc1 : its inhibition in vivo at 50 mg/kg reads 43.8

Noted for Cc1nc(-c2ccccc2)sc1-c1cc(C(F)(F)F)nn1-c1ccc(S(N)(=O)=O)cc1 : its inhibition in vivo at 50 mg/kg reads 53.2

Noted for Cc1nc(-c2ccccc2)sc1-c1cc(C(F)(F)F)nn1-c1ccc(S(C)(=O)=O)cc1 : its inhibition in vivo at 50 mg/kg reads 53.2

Noted for C/C(=N\Nc1ccc(S(N)(=O)=O)cc1)c1sc(-c2ccccc2)nc1C : its inhibition in vivo at 50 mg/kg reads 33.9

Noted for C/C(=N\Nc1ccc(S(C)(=O)=O)cc1)c1sc(-c2ccccc2)nc1C : its inhibition in vivo at 50 mg/kg reads 27.4

Noted for Cc1nc(-c2ccccc2)sc1-c1ccnn1-c1ccc(S(C)(=O)=O)cc1 : its inhibition in vivo at 50 mg/kg reads 46.8

###

assay: Inhibition of soybean 15-LOX using arachidonic acid as substrate by enzyme immunoassay; parameters: species or system Glycine max
For each record, write down the corresponding IC50.
API: value field is a number in µM; no unit string.

Noted for COc1ccc(/C=C/C(=O)c2sc(-c3ccccc3)nc2C)cc1 : its IC50 reads 7.4

Noted for Cc1nc(-c2ccccc2)sc1-c1ccnn1-c1ccc(S(C)(=O)=O)cc1 : its IC50 reads 7.49

Noted for C/C(=N\Nc1ccc(S(N)(=O)=O)cc1)c1sc(-c2ccccc2)nc1C : its IC50 reads 8.6

Noted for COc1ccc([C@@H]2CC(c3sc(-c4ccccc4)nc3C)=NN2c2ccc(S(N)(=O)=O)cc2)cc1 : its IC50 reads 5.9
